Source of measurements: patent US11433139B2

Each entry below carries its recorded IC50, conjugated peptide.
System: mAb ZTS-361
Sequence (as listed by the source): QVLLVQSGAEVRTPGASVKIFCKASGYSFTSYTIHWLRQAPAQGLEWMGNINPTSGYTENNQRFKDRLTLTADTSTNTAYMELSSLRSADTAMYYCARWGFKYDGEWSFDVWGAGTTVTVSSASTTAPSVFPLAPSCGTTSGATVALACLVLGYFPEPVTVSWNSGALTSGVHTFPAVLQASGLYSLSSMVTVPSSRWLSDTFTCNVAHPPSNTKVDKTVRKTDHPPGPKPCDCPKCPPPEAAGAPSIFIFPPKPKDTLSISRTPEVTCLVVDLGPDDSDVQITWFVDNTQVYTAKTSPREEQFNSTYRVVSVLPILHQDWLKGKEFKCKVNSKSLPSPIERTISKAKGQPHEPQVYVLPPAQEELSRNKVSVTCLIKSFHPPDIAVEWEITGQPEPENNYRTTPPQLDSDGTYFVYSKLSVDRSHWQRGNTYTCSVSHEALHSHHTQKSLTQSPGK
Sequence (as listed by the source): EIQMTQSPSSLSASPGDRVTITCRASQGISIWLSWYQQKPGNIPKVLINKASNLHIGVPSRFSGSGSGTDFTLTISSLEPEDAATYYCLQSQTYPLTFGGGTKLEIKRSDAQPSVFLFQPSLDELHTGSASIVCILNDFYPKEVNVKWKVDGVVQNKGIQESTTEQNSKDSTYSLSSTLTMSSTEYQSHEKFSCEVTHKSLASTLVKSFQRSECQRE
Experimental protocol: Peptide block of mAb ZTS-361 inhibition of IL-31 mediated STAT3 phosphorylation in feline FCWF-4 macrophages
Assay type: cell-based
Condition description: CRM197 conjugated; co-incubated 1 hour with 0.2 μM mAb ZTS-361, FCWF-4 cells
Where no end group is shown, it is not given here.
Kindly provide the numeric value in mg/L only, without the unit symbol.

constrained canine IL-31 15H05 mimotope, N-EISVPADTFERKSF-C plus N and C terminal Cysteines (CEISVPADTFERKSFC; cysteine pairing not given here; also: constrained, mode not given here) [ZTS-562] ... 3.024

From here, focus on the item given below.
query: Specify IC50, conjugated peptide for constrained feline IL-31 15H05 mimotope, N-AKVSMPADNFERKNFILT-C plus N and C terminal Cysteines, mT2a (CAKVSMPADNFERKNFILTC; also: constrained via terminal cysteines, mode not given here) [ZTS-563] and stop.
result: 3.384
